Let's look at some compounds and their measured IC50.
- TARGET_OR_TEST_SYSTEM: stromelysin (Homo sapiens, UniProt P08254)
- Sequence (P08254 100-477): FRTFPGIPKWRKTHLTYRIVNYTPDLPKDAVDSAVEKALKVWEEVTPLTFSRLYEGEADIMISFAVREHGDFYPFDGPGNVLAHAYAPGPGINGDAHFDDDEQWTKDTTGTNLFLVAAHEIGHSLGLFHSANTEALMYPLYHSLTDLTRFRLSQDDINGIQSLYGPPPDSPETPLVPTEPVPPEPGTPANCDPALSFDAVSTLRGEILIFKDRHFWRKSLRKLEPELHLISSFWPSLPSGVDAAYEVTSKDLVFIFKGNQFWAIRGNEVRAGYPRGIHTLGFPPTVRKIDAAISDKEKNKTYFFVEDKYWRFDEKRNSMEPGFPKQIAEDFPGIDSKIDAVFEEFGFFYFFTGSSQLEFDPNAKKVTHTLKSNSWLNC
Output spec: scalar in nM, unitless text.

CNC(=O)[C@H](CCCCN(CSc1ccc(O)cc1)C(=O)OC(C)(C)C)NC(=O)[C@H](CC(C)C)[C@H](CSc1ccc(O)cc1)C(=O)NO : 50

Let us move to another entry and its IC50.
Req: Report measured IC50 on stromelysin (Homo sapiens, UniProt P08254); entry: CNC(=O)[C@H](CCCCNC(=O)OC(C)(C)C)NC(=O)[C@H](CC(C)C)[C@H](CSc1cccs1)C(=O)NO
Resp: 20
